Tested on: BT-549
assay name: drug sensitivity score (DSS), CellTiter-Blue viability (DSS (AUC-based score)); higher = stronger viability inhibition; extreme values may be limits of the assay
experimental parameters: incubation time: 72 h
reported metric: drug sensitivity score

Give recorded drug sensitivity score. CO[C@@H](C(=O)N1Cc2[nH]nc(NC(=O)c3ccc(N4CCN(C)CC4)cc3)c2C1)c1ccccc1
9.37

Give recorded drug sensitivity score. O=C(CCBr)N1CCN(C(=O)CCBr)CC1
0

Give recorded drug sensitivity score. c1cc(CN2CCCNCCNCCCNCC2)ccc1CN1CCCNCCNCCCNCC1
0

Give recorded drug sensitivity score. Nc1cccc2c1CN(C1CCC(=O)NC1=O)C2=O (stereo not given) [Lenalidomide]
0

Please turn your attention to the following entry.
Give recorded drug sensitivity score. C[C@]12O[C@H](C[C@]1(O)CO)n1c3ccccc3c3c4c(c5c6ccccc6n2c5c31)CNC4=O
1.24

###

Test system: MDA-MB-453
assay name: normalised viability (% of control), CellTiter-Blue; higher = more viable cells (about 100 = DMSO control)
experimental parameters: incubation time: 72 h
In this section we review reported normalised viability values for a set of molecules.
Express your answer in %, writing the number without its unit.

Give recorded normalised viability. COc1cc(CCc2cc(NC(=O)c3ccc(N4CC(C)NC(C)C4)cc3)n[nH]2)cc(OC)c1 (stereo unspecified) [AZD4547] (30 nM)
109

Give recorded normalised viability. Cc1cccc(-c2nn3c(c2-c2ccnc4ccc(C(N)=O)cc24)CCC3)n1 (30 nM)
93.3

###

Tested on: Hs578T
experimental parameters: 72 h
reported metric: EC50, CellTiter-Glo

Guide cases for EC50, CellTiter-Glo, answers given:
Give recorded EC50, CellTiter-Glo. Cc1c(CN2CCN(C(=O)[C@H](C)O)CC2)sc2c(N3CCOCC3)nc(-c3cnc(N)nc3)nc12 [GDC-0980]
0.445 µM

Give recorded EC50, CellTiter-Glo. CS(=O)(=O)N1CCN(Cc2cc3nc(-c4cccc5[nH]ncc45)nc(N4CCOCC4)c3s2)CC1 [Pictilisib]
1.89 µM

New cases:
Give recorded EC50, CellTiter-Glo. O=C(NC[C@H](O)CO)c1ccncc1Nc1ccc(I)cc1F [Pimasertib]
5.91 µM

Give recorded EC50, CellTiter-Glo. CC[C@@]1(O)C(=O)OCc2c1cc1n(c2=O)Cc2cc3c(CN(C)C)c(O)ccc3nc2-1 [Topotecan]
5.13 µM

###

Tested on: DU-4475
experimental parameters: 72 h
reported metric: EC50, CellTiter-Glo (nM)
Express your answer in nM, writing the number without its unit.

Guide cases for EC50, CellTiter-Glo, answers given:
Give recorded EC50, CellTiter-Glo. CO[C@@H](C(=O)N1Cc2[nH]nc(NC(=O)c3ccc(N4CCN(C)CC4)cc3)c2C1)c1ccccc1 [Danusertib]
1530

Give recorded EC50, CellTiter-Glo. COc1ccc(-c2cc3c(C)nc(N)nc3n([C@H]3CC[C@H](OCCO)CC3)c2=O)cn1
756

Give recorded EC50, CellTiter-Glo. Nc1ccccc1NC(=O)c1ccc(CNc2nccc(-c3cccnc3)n2)cc1 [Mocetinostat]
1570

New cases:
Give recorded EC50, CellTiter-Glo. Cc1c(CN2CCN(C(=O)[C@H](C)O)CC2)sc2c(N3CCOCC3)nc(-c3cnc(N)nc3)nc12 [GDC-0980]
2480

All values here come from the supplement of paper PMC4862054.
